Origin of the recorded values: paper PMC3677924

system: T1, SX17 chimera (Drosophila melanogaster / Sciara …, UniProt Q86QM9 1-71+=R+P19339:125-354, internal_change)
T1 sequence: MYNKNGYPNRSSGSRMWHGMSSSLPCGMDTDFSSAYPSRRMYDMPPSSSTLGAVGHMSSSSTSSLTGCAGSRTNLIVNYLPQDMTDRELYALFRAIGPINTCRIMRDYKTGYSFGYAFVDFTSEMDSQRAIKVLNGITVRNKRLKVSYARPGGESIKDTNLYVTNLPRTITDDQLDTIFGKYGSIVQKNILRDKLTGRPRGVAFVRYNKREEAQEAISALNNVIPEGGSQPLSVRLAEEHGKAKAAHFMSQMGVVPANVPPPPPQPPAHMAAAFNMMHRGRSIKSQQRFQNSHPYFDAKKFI
assay procedure: EMSA; Hill n=1; error 95% CI; 20 mM Hepes pH 8.0, 0.1 M KCl, 0.5 mM EDTA, 1 mM DTT, 0.05% NP40, 20% glycerol, 3 µg yeast tRNA; 5 min on ice, then 10 min at room temperature with RNA; 5% native PAGE, 0.25x TBE
condition context: protein: recombinant; tags: GST; label: fluorescein (RNA labelling mix)
value type: Kd (nM)
Give the quantity in nM, number only.

Qu. Would you kindly share the measured Kd for CAUGAUUAUUUUUUUUUAUUUUUUUUCGGUGA (ssRNA) [double poly(U) SXL site] ?
Ans. 2400
